# TEST_SUMMARY: Pretargeting: 125-I-hMN-14 × 734 bsAb, 24 h later 99m-Tc-IMP-192, biodistribution
# Assay type: in vivo, Nude mice
# ASSAY_CONTEXT: female, NCRNU nude, mouse, total radioactivity; Spleen, 1 h post peptide
Where a SMILES comes first, the peptide text is derived from it. Side-chain parts run from the residue outwards. The star is where a group is joined. DTPA = O=C(O)CN(CCN(CC(=O)O)CC(=O)O)CCN(CC(=O)O)CC(=O)*; X1 = NC(=S)NN=CC(=O)*
OBSERVATION_TYPE: tissue uptake at 1 h (%ID/g)

- CC(=O)N[C@@H](CCCCNC(=O)CN(CCN(CCN(CC(=O)O)CC(=O)O)CC(=O)O)CC(=O)O)C(=O)N[C@@H](Cc1ccc(O)cc1)C(=O)N[C@@H](CCCCNC(=O)CN(CCN(CCN(CC(=O)O)CC(=O)O)CC(=O)O)CC(=O)O)C(=O)N[C@@H](CCCCNC(=O)[C@H](CS)NC(=O)C=NNC(N)=S)C(N)=O [IMP 192] (Ac-K(DTPA)YK(DTPA)K([Cys-X1])-NH2): 0.8

Data origin: patent US20060140858A1
